# PROTOCOL_DETAILS: In vitro cytotoxicity, MTT cell viability assay in HepG2 cells
# Format: cell-based
# CONDITION_SET: human, Cytotoxicity CC50
Reported CC50 at 7 days is given for each of the following molecules.

Lab note: measured CC50 at 7 days of COc1ccc(CNC(=O)C(F)(F)c2cc(C(=O)Nc3ccc(F)c(F)c3)ccc2F)c(OC)c1 was 5 to 30 µM

Memo: COc1ccc(C(F)(F)C(=O)N2CCC(O)CC2)cc1C(=O)Nc1ccc(F)c(C)c1 , reported CC50 at 7 days: > 30 µM

Form: molecule = CCN(CCO)C(=O)C(F)(F)c1cc(C(=O)Nc2ccc(F)c(F)c2)ccc1F ; CC50 at 7 days = > 30 µM

Attention now turns to another entry.
For record Cn1cc(C(=O)Nc2ccc(F)c(Cl)c2)cc1C(F)(F)C(=O)NC1(C#N)CC1 the listed CC50 at 7 days is > 30 µM
